System: wheat (Triticum aestivum)
Assay: Test B pre-/postemergence plant response
Assay type: in vivo
Conditions: Postemergence, 31 g ai/ha; 0 to 100 scale (0 no effect, 100 complete control)
parameter measured: Plant response rating, Wheat

>>> reported_value("O=C1CCCC(O)=C1C(=O)c1cnc(-c2ccccc2)n(C2CCCCCC2)c1=O")
5
>>> reported_value("CCCCn1c(-c2ccccc2)ncc(C(=O)C2=C(O)C3CCC(C3)C2=O)c1=O (stereo not shown)")
30
>>> reported_value("CCCCn1c(C2CC2)ncc(C(=O)C2=C(O)CCCC2=O)c1=O")
30
>>> reported_value("CCn1c(-c2cc(F)cc(F)c2)ncc(C(=O)C2=C(O)CCCC2=O)c1=O")
15

* * *

Entries and their measured Barley plant response rating follow.
System: winter barley (Hordeum vulgare)
Assay: Test B postemergence plant response
Assay type: in vivo
Details: Postemergence, 250 g ai/ha; scale 0 to 100
parameter measured: Barley plant response rating

>>> reported_value("Cc1ccc(C)c(-n2c(-c3ccccc3)ncc(C(=O)C3=C(O)CCCC3=O)c2=O)c1 [Compound 29]")
0
>>> reported_value("Cc1cccc(-n2c(-c3cccc(Cl)c3)ncc(C(=O)C3=C(O)CCCC3=O)c2=O)c1 [Compound 45]")
5
>>> reported_value("O=C1CCCC(O)=C1C(=O)c1cnc(-c2ccccc2)n(-c2ccc(F)cc2)c1=O [Compound 24]")
70
>>> reported_value("CCn1c(-c2ccccc2)ncc(C(=O)C2=C(O)CCCC2=O)c1=O [Compound 49]")
0
>>> reported_value("Cc1ccc(-n2c(-c3cccc(Cl)c3)ncc(C(=O)C3=C(O)CCCC3=O)c2=O)cc1 [Compound 39]")
10

* * *

Test system: large crabgrass (Digitaria sanguinalis)
Assay: Test A pre-/postemergence plant response
Format: in vivo
Settings: Preemergence, 500 g ai/ha; visual injury, 0 to 100 scale (0 no effect, 100 complete control), approx. ten days
parameter measured: Plant response rating, Crabgrass, Large

>>> reported_value("CCCn1c(-c2cccc(OC)c2)ncc(C(=O)C2=C(O)CCCC2=O)c1=O [Compound 100]")
90
>>> reported_value("CCCn1c(C2CC2)ncc(C(=O)C2=C(O)CCCC2=O)c1=O [Compound 153]")
100
>>> reported_value("O=C1CCCC([O-])=C1C(=O)c1cnc(-c2ccccc2)n(-c2ccccc2)c1=O.[K+] [Compound 14]")
90
>>> reported_value("O=C1CCCC(O)=C1C(=O)c1cnc(-c2ccsc2)n(CC2CCCO2)c1=O (stereo not shown) [Compound 98]")
100

* * *

Reported Plant response rating, Morningglory values for the following compounds.
Test system: morningglory (Ipomoea coccinea)
Test: Test B pre-/postemergence plant response
Format: in vivo
Settings: Postemergence, 250 g ai/ha; scale 0 to 100 (0 no effect, 100 complete control)
parameter measured: Plant response rating, Morningglory

>>> reported_value("CCCCCCn1c(-c2ccccc2)ncc(C(=O)C2=C(O)CCCC2=O)c1=O")
100
>>> reported_value("CCCn1c(-c2ccsc2)ncc(C(=O)C2=C(O)CCCC2=O)c1=O")
100
>>> reported_value("O=C1CCCC(O)=C1C(=O)c1cnc(-c2ccsc2)n(CC2CCCO2)c1=O (centres unmarked)")
100
>>> reported_value("O=C1CCCC(O)=C1C(=O)c1cnc(-c2ccsc2)n(C2CCCCC2)c1=O")
100
>>> reported_value("CCCCc1ncc(C(=O)C2=C(O)CCCC2=O)c(=O)n1-c1ccccc1C")
75

* * *

Overview of recorded Plant response rating, Foxtail, Giant for various molecules
Tested on: giant foxtail (Setaria faberii)
Test: Test B pre-/postemergence plant response
Assay type: in vivo
Conditions: Postemergence, 250 g ai/ha; scale 0 to 100 (0 no effect, 100 complete control)
parameter measured: Plant response rating, Foxtail, Giant

>>> reported_value("COCCOCCn1c(-c2ccccc2)ncc(C(=O)C2=C(O)CCCC2=O)c1=O")
98
>>> reported_value("Cc1ccc(F)c(-n2c(-c3ccccc3)ncc(C(=O)C3=C(O)CCCC3=O)c2=O)c1")
85
>>> reported_value("CCCn1c(-c2ccccc2)ncc(C(=O)C2=C(O)CCCC2=O)c1=O")
95
>>> reported_value("O=C1CCCC(O)=C1C(=O)c1cnc(-c2cccs2)n(-c2ccccc2)c1=O")
95
>>> reported_value("CC(C)Cc1ncc(C(=O)C2=C(O)CCCC2=O)c(=O)n1-c1ccccc1")
90

* * *

Test system: velvetleaf (Abutilon theophrasti)
Assay: Test B pre-/postemergence plant response
Assay type: in vivo
Conditions: Preemergence, 62 g ai/ha; scale 0 to 100, 0 no effect, 100 complete control
parameter measured: Plant response rating, Velvetleaf

>>> reported_value("O=C1CCCC(O)=C1C(=O)c1cnc(-c2cccs2)n(-c2ccccc2)c1=O")
80
>>> reported_value("CCCc1ncc(C(=O)C2=C(O)CCCC2=O)c(=O)n1CCC")
100
>>> reported_value("O=C1CCCC(O)=C1C(=O)c1cnc(-c2cccc(Br)c2)n(-c2ccccc2)c1=O")
70
>>> reported_value("CCCCn1c(C2CC2)ncc(C(=O)C2=C(O)CCCC2=O)c1=O")
100
>>> reported_value("CCc1cccc(-n2c(-c3ccccc3)ncc(C(=O)C3=C(O)CCCC3=O)c2=O)c1")
70

* * *

System: ducksalad (Heteranthera limosa)
Test: Test B flooded paddy test
Type: in vivo
Settings: Flood (flooded paddy test), 125 g ai/ha; scale 0 to 100, 0 is no effect, 100 is complete control; 13 to 15 days
A collection of compounds and their measured Plant response rating, Ducksalad
parameter measured: Plant response rating, Ducksalad

>>> reported_value("CC(C)Cc1ncc(C(=O)C2=C(O)CCCC2=O)c(=O)n1-c1ccccc1 [Compound 68]")
30
>>> reported_value("CCCc1ncc(C(=O)C2=C(O)CCCC2=O)c(=O)n1-c1cccc(C)c1 [Compound 79]")
15
>>> reported_value("O=C1CCCC(O)=C1C(=O)c1cnc(-c2cc(F)cc(F)c2)n(CC2CCCCC2)c1=O [Compound 163]")
60
>>> reported_value("O=C1CCCC([O-])=C1C(=O)c1cnc(-c2ccccc2)n(-c2ccccc2)c1=O.[K+] [Compound 14]")
30
>>> reported_value("O=C1CCCC(O)=C1C(=O)c1cnc(-c2ccc(Br)cc2)n(-c2ccccc2)c1=O [Compound 70]")
0
>>> reported_value("Cc1ccc(-n2c(-c3cc(F)cc(F)c3)ncc(C(=O)C3=C(O)CCCC3=O)c2=O)cc1 [Compound 162]")
100
>>> reported_value("CCc1ccc(-n2c(-c3cccc(C)c3)ncc(C(=O)C3=C(O)CCCC3=O)c2=O)cc1 [Compound 213]")
90
>>> reported_value("COCCOCCn1c(-c2ccccc2)ncc(C(=O)C2=C(O)CCCC2=O)c1=O [Compound 91]")
90
>>> reported_value("CCOCCn1c(-c2ccccc2)ncc(C(=O)C2=C(O)CCCC2=O)c1=O [Compound 96]")
50

* * *

Test system: kochia (Kochia scoparia)
Test: Test D pre-/postemergence plant response
Type: in vivo
Conditions: Postemergence; 62 g ai/ha; scale 0 to 100 (0 no effect, 100 complete control)
parameter measured: Plant response rating, Kochia

>>> reported_value("Cc1ccc(F)c(-n2c(-c3ccccc3)ncc(C(=O)C3=C(O)CCCC3=O)c2=O)c1")
5
>>> reported_value("Cc1ccc(Cl)cc1-n1c(-c2ccccc2)ncc(C(=O)C2=C(O)CCCC2=O)c1=O")
0
>>> reported_value("O=C1CCCC(O)=C1C(=O)c1cnc(-c2ccccc2)n(C2CCCCC2)c1=O")
30
>>> reported_value("Cc1c(F)cccc1-n1c(-c2ccccc2)ncc(C(=O)C2=C(O)CCCC2=O)c1=O")
20

* * *

Test system: lambsquarters (Chenopodium album)
Assay: Test B pre-/postemergence plant response
Type: in vivo
Settings: Postemergence, 62 g ai/ha; scale 0 (no effect) to 100 (complete control); 13 to 15 days
parameter measured: Plant response rating, Lambsquarters

>>> reported_value("Cc1ccc(C)c(-n2c(-c3ccccc3)ncc(C(=O)C3=C(O)CCCC3=O)c2=O)c1 [Compound 29]")
85
>>> reported_value("CCn1c(-c2ccccc2)ncc(C(=O)C2=C(O)CCCC2=O)c1=O [Compound 49]")
80
>>> reported_value("Cc1cccc(-n2c(-c3ccccc3)ncc(C(=O)C3=C(O)CCCC3=O)c2=O)c1F [Compound 58]")
95
>>> reported_value("Cc1cc(F)ccc1-n1c(-c2ccccc2)ncc(C(=O)C2=C(O)CCCC2=O)c1=O [Compound 48]")
95

* * *

Test system: groundsel (common groundsel, Senecio vulgaris)
Test: Test D pre-/postemergence plant response
Assay type: in vivo
Settings: Postemergence; 62 g ai/ha; scale 0 to 100 (0 no effect, 100 complete control)
The following compounds are listed with their measured Plant response rating, Groundsel values.
parameter measured: Plant response rating, Groundsel

>>> reported_value("O=C1CCCC(O)=C1C(=O)c1cnc(C2CC2)n(-c2ccccc2)c1=O [Compound 87]")
100
>>> reported_value("CCCCn1c(-c2ccccc2)ncc(C(=O)C2=C(O)C3CCC(C3)C2=O)c1=O (stereo not drawn) [Compound 240]")
100
>>> reported_value("Cc1ccc(Cl)cc1-n1c(-c2ccccc2)ncc(C(=O)C2=C(O)CCCC2=O)c1=O [Compound 52]")
100
